Source of measurements: patent US20090111798A1

Where a name gives a salt, the structure may show the parent alone.
Give measured IC50 for each item. Keep answers brief.

Ask: Give NS5B polymerase (Hepatitis C virus genotype 1b) IC50 for CS(=O)(=O)Nc1ccc2c(c1)S(=O)(=O)N=C(C1=C(O)C3CCCCCC3NC1=O)N2 (stereo not shown) [Example 59]
Reply: 1000 to 100000 nM

Ask: Find IC50 (NS5B polymerase (Hepatitis C virus genotype 1b)) for the entry O=C1C(C2=NS(=O)(=O)c3cc(I)ccc3N2)=C(O)C2CCCCCC2N1Cc1ccc(F)cc1 (stereo not shown) [Example 46]
Reply: 1000 to 100000 nM

Ask: What value of IC50 on NS5B polymerase (Hepatitis C virus genotype 1b) does CS(=O)(=O)Nc1ccc2c(c1)S(=O)(=O)N=C(C1=C(O)[C@@H]3CCC[C@@H]3N(CCc3ccccc3)C1=O)N2 (relative stereo) [Example 9] have?
Reply: 100 to 1000 nM

Ask: Give recorded IC50 with NS5B polymerase (Hepatitis C virus genotype 1b) for the following molecule: CS(=O)(=O)Nc1ccc2c(c1)S(=O)(=O)N=C(C1=C(O)[C@H]3CCCC[C@H]3N(Cc3ccc(F)cc3)C1=O)N2 [Example 31]
Sequence (P26663 2420-3010): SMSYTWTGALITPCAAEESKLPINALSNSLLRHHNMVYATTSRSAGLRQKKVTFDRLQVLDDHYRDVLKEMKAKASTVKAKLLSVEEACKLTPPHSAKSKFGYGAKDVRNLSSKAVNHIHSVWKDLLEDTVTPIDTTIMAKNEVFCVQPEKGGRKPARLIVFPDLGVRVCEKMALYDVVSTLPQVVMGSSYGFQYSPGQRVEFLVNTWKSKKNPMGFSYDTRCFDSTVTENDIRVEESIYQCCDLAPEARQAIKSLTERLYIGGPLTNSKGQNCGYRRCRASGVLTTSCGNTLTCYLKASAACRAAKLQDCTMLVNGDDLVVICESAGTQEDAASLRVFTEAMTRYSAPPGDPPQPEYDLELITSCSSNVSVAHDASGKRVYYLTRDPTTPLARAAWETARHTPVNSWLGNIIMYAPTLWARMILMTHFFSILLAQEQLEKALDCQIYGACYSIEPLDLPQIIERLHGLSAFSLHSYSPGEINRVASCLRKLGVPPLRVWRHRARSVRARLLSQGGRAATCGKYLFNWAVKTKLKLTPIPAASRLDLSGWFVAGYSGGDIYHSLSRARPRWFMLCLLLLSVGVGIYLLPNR
Reply: 20 to 100 nM

Ask: Missing value: IC50, NS5B polymerase (Hepatitis C virus genotype 1b), entry CS(=O)(=O)Nc1ccc2c(c1)S(=O)(=O)N=C(C1=C(O)C3CCCCCC3N(Cc3ccc(F)cc3)C1=O)N2 (stereo not shown) [Example 2] . Fill in?
Reply: 20 to 100 nM

Ask: Report IC50 for CN(C)CCN1C(=O)C(C2=NS(=O)(=O)c3cc(NS(C)(=O)=O)ccc3N2)=C(O)[C@@H]2CCC[C@@H]21 (relative stereo) [Example 6] tested on NS5B polymerase (Hepatitis C virus genotype 1b).
Reply: 1000 to 100000 nM

Ask: Hello, I am looking for reported IC50 with NS5B polymerase (Hepatitis C virus genotype 1b) for CC(C)CCN1C(=O)C(C2=NS(=O)(=O)c3cc(NS(C)(=O)=O)ccc3N2)=C(O)[C@@H]2CCC[C@@H]21 [Example 28] . Could you help?
Reply: < 20 nM

Ask: Hello, I am looking for reported IC50 with NS5B polymerase (Hepatitis C virus genotype 1b) for CS(=O)(=O)Nc1ccc2c(c1)S(=O)(=O)N=C(C1=C(O)C3CCCCC3N(C3CCCCC3)C1=O)N2 (stereo not shown) [Example 49] . Could you help?
Reply: 100 to 1000 nM

Ask: Form field: IC50 recorded for CS(=O)(=O)Nc1ccc2c(c1)S(=O)(=O)N=C(C1=C(O)C3CCC=CC3N(Cc3ccc(F)cc3)C1=O)N2 (stereo not shown) [Example 16] with NS5B polymerase (Hepatitis C virus genotype 1b) (enter value)
Reply: < 20 nM

Ask: Value wanted: IC50 (NS5B polymerase (Hepatitis C virus genotype 1b)) of entry O=C1C(C2=NS(=O)(=O)c3cc(NS(=O)(=O)c4ccccc4)ccc3N2)=C(O)[C@@H]2CCC[C@@H]2N1Cc1ccc(F)cc1 [Example 40]
Reply: 20 to 100 nM

Ask: Return IC50 measured with NS5B polymerase (Hepatitis C virus genotype 1b) given this molecule: CS(=O)(=O)Nc1ccc2c(c1)S(=O)(=O)N=C(C1=C(O)[C@@H]3CCC[C@@H]3N(Cc3ccccn3)C1=O)N2 (relative stereo) [Example 4]
Reply: 100 to 1000 nM

Ask: Give the reported IC50 for CC(C)CCN1C(=O)C(C2=NS(=O)(=O)c3cc(NS(C)(=O)=O)ccc3N2)=C(O)[C@H]2CCC[C@H]21 (relative stereo) [Example 17] (system: NS5B polymerase (Hepatitis C virus genotype 1b)).
Reply: < 20 nM

Ask: Hello, I am looking for reported IC50 with NS5B polymerase (Hepatitis C virus genotype 1b) for CS(=O)(=O)Nc1ccc2c(c1)S(=O)(=O)N=C(C1=C(O)[C@@H]3CCC[C@@H]3N(Cc3cccc(F)c3)C1=O)N2 (relative stereo) [Example 8] . Could you help?
Reply: < 20 nM

Ask: Give IC50 (NS5B polymerase (Hepatitis C virus genotype 1b)) of the following molecule: CC(C)N1C(=O)C(C2=NS(=O)(=O)c3cc(NS(C)(=O)=O)ccc3N2)=C(O)[C@@H]2CCC[C@@H]21 (relative stereo) [Example 55]
Reply: 100 to 1000 nM

Ask: For NS5B polymerase (Hepatitis C virus genotype 1b), provide IC50 of CS(=O)(=O)Nc1ccc2c(c1)S(=O)(=O)N=C(C1=C(O)[C@@H]3CCC[C@@H]3N(Cc3ccc(F)c(Cl)c3)C1=O)N2 [Example 11] please.
Reply: < 20 nM

Ask: Entry CS(=O)(=O)Nc1ccc2c(c1)S(=O)(=O)N=C(C1=C(O)[C@@H]3CCCC[C@@H]3N(Cc3ccc(F)cc3)C1=O)N2 [Example 13] , system NS5B polymerase (Hepatitis C virus genotype 1b): what IC50 was measured?
Reply: 20 to 100 nM

Ask: What is its IC50 for NS5B polymerase (Hepatitis C virus genotype 1b)? Entry: CS(=O)(=O)Nc1ccc2c(c1)S(=O)(=O)N=C(C1=C(O)[C@@H]3CCC[C@@H]3N(NC3CCC3)C1=O)N2 (relative stereo) [Example 41, trifluoroacetic acid salt]
Reply: 20 to 100 nM

Ask: Lab note: need IC50 with NS5B polymerase (Hepatitis C virus genotype 1b) for entry CN1C(=O)C(C2=NS(=O)(=O)c3cc(NS(C)(=O)=O)ccc3N2)=C(O)[C@@H]2CCC[C@@H]21 (relative stereo) [Example 53] , please look it up.
Reply: 1000 to 100000 nM

Ask: Notebook: pull reported IC50 for NS5B polymerase (Hepatitis C virus genotype 1b), entry CS(=O)(=O)Nc1ccc2c(c1)S(=O)(=O)N=C(C1=C(O)C3CCCCCC3N(CCC3CC3)C1=O)N2 (mixture of isomers) [Example 58]
Reply: 20 to 100 nM

Ask: Write down the reported IC50 of O=C1C(C2=NS(=O)(=O)c3cc(NS(=O)(=O)Cc4ccccc4)ccc3N2)=C(O)[C@@H]2CCC[C@@H]2N1Cc1ccc(F)cc1 [Example 52] , test system: NS5B polymerase (Hepatitis C virus genotype 1b).
Reply: 100 to 1000 nM

Ask: Please state recorded IC50 (tested on NS5B polymerase (Hepatitis C virus genotype 1b)) of CN(c1ccc2c(c1)S(=O)(=O)N=C(C1=C(O)C3CCCCCCC3N(CCC(C)(C)C)C1=O)N2)S(C)(=O)=O (stereo not shown) [Example 36]
Reply: 1000 to 100000 nM

Ask: Notebook: pull reported IC50 for NS5B polymerase (Hepatitis C virus genotype 1b), entry CC(C)(C)CCN1C(=O)C(C2=NS(=O)(=O)c3cc(NS(C)(=O)=O)ccc3N2)=C(O)[C@@H]2CCC[C@@H]21 [Example 29]
Reply: < 20 nM

Ask: Requested read-out IC50, target or system NS5B polymerase (Hepatitis C virus genotype 1b), entry Cc1cccc(CN2C(=O)C(C3=NS(=O)(=O)c4cc(NS(C)(=O)=O)ccc4N3)=C(O)[C@@H]3CCC[C@@H]32)c1 [Example 23]
Reply: < 20 nM

Ask: Recall the recorded IC50 for O=C1C(C2=NS(=O)(=O)c3cc(C4CCCS4(=O)=O)ccc3N2)=C(O)[C@@H]2CCC[C@@H]2N1Cc1ccc(F)cc1 (mixture of isomers) [Example 45] with NS5B polymerase (Hepatitis C virus genotype 1b) and state it.
Reply: 20 to 100 nM

Ask: Field: IC50 (NS5B polymerase (Hepatitis C virus genotype 1b)). Entry: CS(=O)(=O)Nc1ccc2c(c1)S(=O)(=O)N=C(C1=C(O)[C@@H]3CCC[C@@H]3N(CC3CC3)C1=O)N2 [Example 30]
Reply: 100 to 1000 nM
